target: Serine/threonine-protein kinase pim-2 (Homo sapiens); assay: Inhibition of PIM2 (unknown origin) at 500 nM
measured quantity: inhibition (%)
// note: answer is a bare numeric in %

Guide cases for inhibition, answers given:
- smiles representation: "COc1cc(CO)ccc1-c1cc2c(Nc3ccc(F)c(Cl)c3)ncnc2s1"
  inhibition (%): 6
- smiles representation: "COc1cc(CO)ccc1-c1cc2c(Nc3ccccc3)ncnc2s1"
  inhibition (%): 5
- smiles representation: "CN(C)CCNC(=O)c1ccc(-c2cc3c(N[C@H](CO)c4ccccc4)ncnc3s2)cc1"
  inhibition (%): 1
- smiles representation: "COc1cc(CO)ccc1-c1cc2c(N[C@H](C)c3ccccc3)ncnc2s1"
  inhibition (%): 1
- smiles representation: "COc1cc(C(N)=O)ccc1-c1cc2c(N[C@H](CO)c3ccccc3)ncnc2s1"
  inhibition (%): 11
- smiles representation: "C[C@@H](Nc1ncnc2sc(-c3ccccc3C(N)=O)cc12)c1ccccc1"
  inhibition (%): 0

Input: Provide one value: measured inhibition of C#Cc1cccc(Nc2ncnc3sc(-c4ccc(CO)cc4OC)cc23)c1
Output: 11

Every entry's value here was drawn from ChEMBL document CHEMBL3758163.
